Please provide measured % soluble aggregate for the entries that follow.
# experiment_summary: Soluble aggregates of transiently expressed antibodies
# Assay type: physicochemical
# applied_conditions: Protein A purified antibody
Provide only the numeric value, understood in %.

# input molecule: J1-65D variant 7: humanised/de-immunised J1-65D: J1-65D_VL_2 + J1-65D_VH_3 (antibody, V domains shown) VH: QVQLVQSGAEVKKPGSSVKVSCKASGYTFTDYEMHWVRQAPGQGLEWMGAIQPGGGGTAYAQKFQGRVTLTADKSTSTAYMELSSLRSEDTAVYYCTRRGYDDYPFAYWGQGTLVTVSSASTKGP VL: DIQMTQSPSSLSASVGDRVTITCRASGNIHNYLAWYQQKPGKAPKLLIYNAKTLADAVPSRFSGSGSGTDYTLTISSLQPEDFATYYCQHFWSAPWTFGGGTKLEIKRT ; wanted: its % soluble aggregate
0

Entry J1-65D variant 3: humanised/de-immunised J1-65D: J1-65D_VL_1 + J1-65D_VH_3 (antibody, V domains shown) VH: QVQLVQSGAEVKKPGSSVKVSCKASGYTFTDYEMHWVRQAPGQGLEWMGAIQPGGGGTAYAQKFQGRVTLTADKSTSTAYMELSSLRSEDTAVYYCTRRGYDDYPFAYWGQGTLVTVSSASTKGP VL: DIQMTQSPSSLSASVGDRVTITCRASGNIHNYLAWYQQKPGKAPKLLIYNAKTLADDVPSRFSGSGSGTDYTLTISSLQPEDFATYYCQHFWSAPWTFGGGTKLEIKRT please
1.67
